- Test system: ZFP8196 linker TEPRAKPPKP (artificial)
Decide using binding signal (normalized ELISA): a value greater than or equal to 0.4 is MET, a smaller one is NOT MET.

Please review the entries below; each comes with its answer.
> print(dat)
                                 seq.string  assigned.label
1  TTAGATAAACTGTCCAAAAGGCTATC (double strand) [8196 target gap TC]         NOT MET
2  TTAGATAAACTGACCAAAAGGCTATC (double strand) [8196 target gap AC]         NOT MET
3  TTAGATAAACTGGCAAAAGGCTATC (double strand) [8196 target gap G]             MET
4  TTAGATAAACTGCCAAAAGGCTATC (double strand) [8196 target gap C]         NOT MET

Prompt: Decide: is the reported value of binding signal (normalized ELISA) for TTAGATAAACTGTGCAAAAGGCTATC (double strand) [8196 target gap TG] equal to or greater than 0.4?
Completion: NOT MET

###

- System: ZFN7263 linker TPLCQRPMKQKP (artificial)
- Procedure Details: cell_activity
- Particulars: yeast, paired with 7264 ZFN
Can you tell me activity (normalized MEL-1) for the items I'm about to list?
Numbers only.

// input: 5 sequences below; output: activity (normalized MEL-1) for each
1. ACTCTGGTGGAAG (double strand) [7263 yeast half-site gap G]
2. ACTCTGTTGGAAG (double strand) [7263 yeast half-site gap T]
3. ACTCTGATGGAAG (double strand) [7263 yeast half-site gap A]
4. ACTCTGCTGGAAG (double strand) [7263 yeast half-site gap C]
5. ACTCTGTGGAAG (double strand) [7263 yeast half-site 0-bp gap]

Completion:
1.52
1.19
0.97
0.3
0.04

###

- Test system: ZFP7263 linker TGGGGSQKP (artificial)
So I've got a bunch of sequences here, and I need their binding signal (normalized ELISA) values.
One number for each entry.

Use these answered entries as a reference point.
> print(dat)
                                 seq.string  observed.measurement
1  TTAGCCACTCTGACTGGAAGTGTATC (double strand) [7263 target gap AC]                  0.01
2  TTAGCCACTCTGCTTGGAAGTGTATC (double strand) [7263 target gap CT]                  0.02
3  TTAGCCACTCTGGTGGAAGTGTATC (double strand) [7263 target gap G]                  0.41

Dear colleague, could you send me binding signal (normalized ELISA) for each of the items below? Thanks.
1. TTAGCCACTCTGATTGGAAGTGTATC (double strand) [7263 target gap AT]
2. TTAGCCACTCTGCTGGAAGTGTATC (double strand) [7263 target gap C]
3. TTAGCCACTCTGATGGAAGTGTATC (double strand) [7263 target gap A]

Completion:
1: 0.01; 2: 0.05; 3: 0.06

###

- System: ZFN7263 linker TYPRPLLAKP (artificial)
- Procedure Details: cell_activity
- Particulars: yeast, paired with 7264 ZFN
MET means recorded activity (normalized MEL-1) is 0.7 or above; NOT MET means it is below 0.7.

Record excerpt, results attached:
> print(dat)
                                 seq.string  assigned.label
1  ACTCTGCTGGAAG (double strand) [7263 yeast half-site gap C]         NOT MET
2  ACTCTGTGGAAG (double strand) [7263 yeast half-site 0-bp gap]         NOT MET
3  ACTCTGTTGGAAG (double strand) [7263 yeast half-site gap T]             MET
4  ACTCTGACTGGAAG (double strand) [7263 yeast half-site gap AC]         NOT MET

Prompt: Kindly determine if activity (normalized MEL-1) recorded for ACTCTGGTGGAAG (double strand) [7263 yeast half-site gap G] is above or exactly 0.7.
Completion: MET
